- SYSTEM: EP3 membrane (EP3 receptor) (Homo sapiens)
- Construct: purchased Millipore HTS092M
- Sequence (P43115 1-390): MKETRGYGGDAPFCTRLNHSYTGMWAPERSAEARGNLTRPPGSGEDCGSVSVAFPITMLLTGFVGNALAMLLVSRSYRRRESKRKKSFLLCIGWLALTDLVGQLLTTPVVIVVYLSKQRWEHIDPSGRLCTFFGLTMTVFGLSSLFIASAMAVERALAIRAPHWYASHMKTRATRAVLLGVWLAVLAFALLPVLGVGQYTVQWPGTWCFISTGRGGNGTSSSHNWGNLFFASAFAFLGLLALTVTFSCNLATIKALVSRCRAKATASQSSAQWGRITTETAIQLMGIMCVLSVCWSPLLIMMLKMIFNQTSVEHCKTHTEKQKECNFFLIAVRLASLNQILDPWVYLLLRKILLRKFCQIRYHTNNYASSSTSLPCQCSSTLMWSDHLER
- PROCEDURE_TEXT: [3H]-PGE2 binding; EP3 competition binding (SPA)
pKi: −log10 of the molar value.
MEASURED_METRIC: pKi

* O=C(NC/C(F)=C1/CCc2cnn(-c3ccc(C(F)(F)F)cc3)c21)NS(=O)(=O)c1cc(Cl)c(Cl)s1 | 6.66
* CS(=O)(=O)c1ccc(-n2ncc3c2/C(=C/CNC(=O)NS(=O)(=O)c2cc(Cl)c(Cl)s2)CCC3)cc1 | 9.00
* Cn1nccc1S(=O)(=O)NC(=O)NC/C=C1\CCCc2cnn(Cc3ccc(Cl)cc3Cl)c21 | 7.74

I: COc1ccc(Cl)cc1S(=O)(=O)NC(=O)CC/C=C1\CCCc2cnn(Cc3ccc(Cl)cc3Cl)c21
II: O=C(NC/C(F)=C1\COCc2cnn(C3CCN(c4ccc(F)cc4)CC3)c21)NS(=O)(=O)c1cc(Cl)c(Cl)s1
Input line: Param metric = pKi; output whichever of I , II has the minimum value. Bench note: the answer is the label of the chosen record.
Output line: II
(II: 7.21, I: 8.52)

A: O=C(NC/C(F)=C1\COCc2cnn(-c3ccc(C(F)(F)F)cc3)c21)NS(=O)(=O)c1ccc(Cl)cc1
B: COc1nc2ccc(S(=O)(=O)NC(=O)NC/C(F)=C3\CCCc4cnn(Cc5ccc(Cl)cc5Cl)c43)cc2o1
C: COc1cccc(S(=O)(=O)NC(=O)NC/C=C2\COCc3cnn(Cc4ccc(Cl)cc4Cl)c32)c1
D: O=C(NS(=O)(=O)c1ccc(Cl)cc1)OC/C=C1\CCCc2c(C(F)F)nn(Cc3ccc(Cl)cc3Cl)c21
Input line: Sort the 4 compounds by pKi; largest first, smallest last. Reply with the item labels sorted in the order that was asked for.
Output line: B, C, D, A
